system name: human apelin receptor (Homo sapiens, UniProt P35414)
Sequence (P35414 whole entry): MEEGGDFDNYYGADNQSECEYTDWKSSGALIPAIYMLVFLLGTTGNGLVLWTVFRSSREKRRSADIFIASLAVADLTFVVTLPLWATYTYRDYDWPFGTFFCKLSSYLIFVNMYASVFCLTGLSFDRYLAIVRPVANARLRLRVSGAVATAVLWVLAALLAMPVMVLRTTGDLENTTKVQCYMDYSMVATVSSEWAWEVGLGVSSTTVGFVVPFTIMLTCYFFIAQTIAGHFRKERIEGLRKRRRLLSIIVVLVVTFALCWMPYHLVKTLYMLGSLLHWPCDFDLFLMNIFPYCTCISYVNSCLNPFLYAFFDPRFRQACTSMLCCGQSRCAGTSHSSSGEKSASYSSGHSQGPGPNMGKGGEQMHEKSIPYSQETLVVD
assay comment: Cerep radioligand binding assay on CHO-K1 cells expressing the human apelin receptor
Design: host or cells: CHO-K1
condition context: [Glp65,Nle75,Tyr77][125I]apelin-13, read-out: Ki (binding affinity at the apelin receptor, Cerep)
Non-standard residues stand in square brackets, D forms with d. Residues, ends and D or L forms follow the SMILES beside them. *: point of attachment. Phe(3,4,5-F3) = N[C@@H](Cc1cc(F)c(F)c(F)c1)C(=O)O; Myristoyl = CCCCCCCCCCCCCC(=O)*; pGlu = O=C1CC[C@@H](C(=O)O)N1; Nle = CCCC[C@H](N)C(=O)O; Abu = CC[C@H](N)C(=O)O; Aib = CC(C)(N)C(=O)O
quantity measured: Ki (nM)
The response must be a number in nM with no trailing unit.

Worked cases, Ki given:
compound	reading
CCCC[C@H](NC(=O)[C@H](CCCNC(=N)N)NC(=O)C(C)(C)NC(=O)[C@H](CCCNC(=N)N)NC(=O)[C@H](CS)NC(=O)[C@H](Cc1c[nH]cn1)NC(=O)[C@H](CCCCN)NC(=O)[C@H](CS)NC(=O)[C@H](CCCC)NC(=O)[C@H](CCCNC(=N)N)NC(=O)[C@@H]1CCCN1C(=O)[C@H](CCCNC(=N)N)NC(=O)[C@@H](N)CCC(N)=O)C(=O)N[C@@H](Cc1cc(F)c(F)c(F)c1)C(=O)O [MM262] (H-QRPR[Nle]CKHCR[Aib]R[Nle][Phe(3,4,5-F3)]-OH)	34
CCCC[C@H](NC(=O)[C@H](CCCNC(=N)N)NC(=O)C(C)(C)NC(=O)[C@H](CCCNC(=N)N)NC(=O)[C@H](CS)NC(=O)[C@H](Cc1c[nH]cn1)NC(=O)[C@H](CCCCN)NC(=O)[C@H](CS)NC(=O)[C@H](CCCC)NC(=O)[C@H](CCCNC(=N)N)NC(=O)[C@@H]1CCCN1C(=O)[C@H](CCCNC(=N)N)NC(=O)[C@@H](N)CS)C(=O)N[C@@H](Cc1cc(F)c(F)c(F)c1)C(=O)O [MM193] (H-CRPR[Nle]CKHCR[Aib]R[Nle][Phe(3,4,5-F3)]-OH)	19
CCCC[C@H](NC(=O)[C@H](CCCNC(=N)N)NC(=O)C(C)(C)NC(=O)[C@H](CCCNC(=N)N)NC(=O)[C@H](CS)NC(=O)[C@H](CCCCN)NC(=O)[C@H](Cc1c[nH]cn1)NC(=O)[C@H](CS)NC(=O)[C@H](CCCC)NC(=O)[C@H](CCCNC(=N)N)NC(=O)[C@@H]1CCCN1C(=O)[C@H](CCCNC(=N)N)NC(=O)[C@@H](N)CS)C(=O)N[C@@H](Cc1cc(F)c(F)c(F)c1)C(=O)O [MM302] (H-CRPR[Nle]CHKCR[Aib]R[Nle][Phe(3,4,5-F3)]-OH; N-terminus and C-terminus assumed)	17
CCCC[C@H](NC(=O)[C@H](CCCNC(=N)N)NC(=O)C(C)(C)NC(=O)[C@H](CCCNC(=N)N)NC(=O)[C@H](CS)NC(=O)[C@H](Cc1c[nH]cn1)NC(=O)[C@H](CCCCN)NC(=O)[C@H](CS)NC(=O)[C@H](CCCC)NC(=O)[C@H](CCCNC(=N)N)NC(=O)[C@@H]1CCCN1C(=O)[C@H](CCCNC(=N)N)NC(=O)[C@@H]1CCC(=O)N1)C(=O)N[C@@H](Cc1cc(F)c(F)c(F)c1)C(=O)O [MM297] ([pGlu]RPR[Nle]CKHCR[Aib]R[Nle][Phe(3,4,5-F3)]-OH)	55
CCCC[C@H](NC(=O)[C@H](CCCNC(=N)N)NC(=O)C(C)(C)NC(=O)[C@H](CCCNC(=N)N)NC(=O)[C@H](CC)NC(=O)[C@H](Cc1c[nH]cn1)NC(=O)[C@H](CCCCN)NC(=O)[C@H](CS)NC(=O)[C@H](CCCC)NC(=O)[C@H](CCCNC(=N)N)NC(=O)[C@@H]1CCCN1C(=O)[C@H](CCCNC(=N)N)NC(=O)[C@@H](N)CS)C(=O)N[C@@H](Cc1cc(F)c(F)c(F)c1)C(=O)O [MM299] (H-CRPR[Nle]CKH[Abu]R[Aib]R[Nle][Phe(3,4,5-F3)]-OH)	6.1
CCCC[C@H](NC(=O)[C@H](CCCNC(=N)N)NC(=O)C(C)(C)NC(=O)[C@H](CCCNC(=N)N)NC(=O)[C@H](CS)NC(=O)[C@H](Cc1c[nH]cn1)NC(=O)[C@H](CCCCN)NC(=O)[C@H](CC)NC(=O)[C@H](CCCC)NC(=O)[C@H](CCCNC(=N)N)NC(=O)[C@@H]1CCCN1C(=O)[C@H](CCCNC(=N)N)NC(=O)[C@@H](N)CS)C(=O)N[C@@H](Cc1cc(F)c(F)c(F)c1)C(=O)O [MM298] (H-CRPR[Nle][Abu]KHCR[Aib]R[Nle][Phe(3,4,5-F3)]-OH)	16

Could you now consider this next compound?
Ki for CCCCCCCCCCCCCC(=O)N[C@@H](CS)C(=O)N[C@@H](CCCNC(=N)N)C(=O)N1CCC[C@H]1C(=O)N[C@@H](CCCNC(=N)N)C(=O)N[C@@H](CCCC)C(=O)N[C@@H](CS)C(=O)N[C@@H](CCCCN)C(=O)N[C@@H](Cc1c[nH]cn1)C(=O)N[C@@H](CS)C(=O)N[C@@H](CCCNC(=N)N)C(=O)NC(C)(C)C(=O)N[C@@H](CCCNC(=N)N)C(=O)N[C@@H](CCCC)C(=O)N[C@@H](Cc1cc(F)c(F)c(F)c1)C(=O)O [MM300] (Myristoyl-CRPR[Nle]CKHCR[Aib]R[Nle][Phe(3,4,5-F3)]-OH; C-terminus assumed) is 13

----------
system name: human apelin receptor (Homo sapiens)
assay comment: DRx β-arrestin assay (PathHunter eXpress AGTRL1 CHO-K1)
Type: cell-based
Design: host or cells: CHO-K1
condition context: DRx β-Arrestin pA2
Non-standard residues stand in square brackets, D forms with d. Residues, ends and D or L forms follow the SMILES beside them. Phe(3,4,5-F3) = N[C@@H](Cc1cc(F)c(F)c(F)c1)C(=O)O; pGlu = O=C1CC[C@@H](C(=O)O)N1; Nle = CCCC[C@H](N)C(=O)O; Abu = CC[C@H](N)C(=O)O; Aib = CC(C)(N)C(=O)O
quantity measured: Kb (µM)
Quick reminder: number only, in µM, skip the unit.

compound	Kb (µM)
CCCC[C@H](NC(=O)[C@H](CCCNC(=N)N)NC(=O)C(C)(C)NC(=O)[C@H](CCCNC(=N)N)NC(=O)[C@H](CS)NC(=O)[C@H](Cc1c[nH]cn1)NC(=O)[C@H](CCCCN)NC(=O)[C@H](CS)NC(=O)[C@H](CCCC)NC(=O)[C@H](CCCNC(=N)N)NC(=O)[C@@H]1CCCN1C(=O)[C@H](CCCNC(=N)N)NC(=O)[C@@H]1CCC(=O)N1)C(=O)N[C@@H](Cc1cc(F)c(F)c(F)c1)C(=O)O [MM297] ([pGlu]RPR[Nle]CKHCR[Aib]R[Nle][Phe(3,4,5-F3)]-OH)	0.0417

Reported Kb (human apelin receptor (Homo sapiens)) for entry CCCC[C@H](NC(=O)[C@H](CCCNC(=N)N)NC(=O)C(C)(C)NC(=O)[C@H](CCCNC(=N)N)NC(=O)[C@H](CS)NC(=O)[C@H](Cc1c[nH]cn1)NC(=O)[C@H](CCCCN)NC(=O)[C@H](CS)NC(=O)[C@H](CCCC)NC(=O)[C@H](CCCNC(=N)N)NC(=O)[C@@H]1CCCN1C(=O)[C@H](CCCNC(=N)N)NC(=O)[C@@H](N)CCC(N)=O)C(=O)N[C@@H](Cc1cc(F)c(F)c(F)c1)C(=O)O [MM262] (H-QRPR[Nle]CKHCR[Aib]R[Nle][Phe(3,4,5-F3)]-OH) is 0.0295

Bench note, human apelin receptor (Homo sapiens): CCCC[C@H](NC(=O)[C@H](CCCNC(=N)N)NC(=O)C(C)(C)NC(=O)[C@H](CCCNC(=N)N)NC(=O)[C@H](CS)NC(=O)[C@H](Cc1c[nH]cn1)NC(=O)[C@H](CCCCN)NC(=O)[C@H](CS)NC(=O)[C@H](CCCC)NC(=O)[C@H](CCCNC(=N)N)NC(=O)[C@@H]1CCCN1C(=O)[C@H](CCCNC(=N)N)NC(=O)[C@@H](N)CS)C(=O)N[C@@H](Cc1cc(F)c(F)c(F)c1)C(=O)O [MM193] (H-CRPR[Nle]CKHCR[Aib]R[Nle][Phe(3,4,5-F3)]-OH) , Kb reads 0.0209

// returns Kb for CCCC[C@H](NC(=O)[C@H](CCCNC(=N)N)NC(=O)C(C)(C)NC(=O)[C@H](CCCNC(=N)N)NC(=O)[C@H](CS)NC(=O)[C@H](Cc1c[nH]cn1)NC(=O)[C@H](CCCCN)NC(=O)[C@H](CC)NC(=O)[C@H](CCCC)NC(=O)[C@H](CCCNC(=N)N)NC(=O)[C@@H]1CCCN1C(=O)[C@H](CCCNC(=N)N)NC(=O)[C@@H](N)CS)C(=O)N[C@@H](Cc1cc(F)c(F)c(F)c1)C(=O)O [MM298] (H-CRPR[Nle][Abu]KHCR[Aib]R[Nle][Phe(3,4,5-F3)]-OH) with human apelin receptor (Homo sapiens); value = 0.0174

Lab entry: human apelin receptor (Homo sapiens) assay, compound CC(C)C[C@H](NC(=O)[C@H](CCCNC(=N)N)NC(=O)[C@@H]1CCCN1C(=O)[C@H](CCCNC(=N)N)NC(=O)[C@H](CS)NC(=O)[C@H](CCCCN)NC(=O)[C@H](Cc1c[nH]cn1)NC(=O)[C@H](CS)NC(=O)[C@H](CC(C)C)NC(=O)[C@H](CCCNC(=N)N)NC(=O)[C@@H]1CCCN1C(=O)[C@H](CCCNC(=N)N)NC(=O)[C@@H](N)CS)C(=O)N[C@@H](CS)C(=O)O [MM107] (H-CRPRLCHKCRPRLC-OH; N-terminus and C-terminus assumed) , Kb = 0.0575

Entry CC(C)C[C@H](NC(=O)[C@H](CCCNC(=N)N)NC(=O)[C@@H]1CCCN1C(=O)[C@H](CCCNC(=N)N)NC(=O)[C@H](CS)NC(=O)[C@H](Cc1c[nH]cn1)NC(=O)[C@H](CCCCN)NC(=O)[C@H](CS)NC(=O)[C@H](CC(C)C)NC(=O)[C@H](CCCNC(=N)N)NC(=O)[C@@H]1CCCN1C(=O)[C@H](CCCNC(=N)N)NC(=O)[C@@H](N)CS)C(=O)N[C@@H](CS)C(=O)O [MM108] (H-CRPRLCKHCRPRLC-OH) : Kb on human apelin receptor (Homo sapiens) = 0.0389
